Each entry below lists one item and its recorded growth value.
Test system: MOLT-4 leukemia
test.method.notes: NCI-60 one-dose screen, 48 h (100 = growth as untreated, 0 = no growth, -100 = all killed)
test.context: 10 µM unless noted
The panel holds about 83,000 compounds, 20% with a hit somewhere; the sample as a whole holds those more often.
Just the number please, in %, no unit attached.

Solved entries (count: 5):
compound=COP(=O)(OC)c1nnn(-c2cccc([N+](=O)[O-])c2)c1C quantity_measured=growth measurement_unit=% assay_value=101
compound="COc1cc(OC)cc(C2C(C#N)=C(N)Oc3c2ccc2ccc(O)cc32)c1 (stereo not given)" quantity_measured=growth measurement_unit=% assay_value=7.26
compound=CCCCCCCCn1ccc2cc(NC(=O)Cn3cc(CN4CCCCCC4)nn3)ccc21 quantity_measured=growth measurement_unit=% assay_value=-27.5
compound=CCOC(=O)c1c(C)nc2ccccc2c1/C=C/c1ccc(OC)cc1 quantity_measured=growth measurement_unit=% assay_value=26.1
compound=O=c1[nH]c(-c2ccc(Cl)cc2)cn1-c1ccc(-n2cc(-c3ccc(Cl)cc3)[nH]c2=O)cc1 quantity_measured=growth measurement_unit=% assay_value=107

Q: Can you look up the measured growth of "C[N+](C)(C/C=C/c1ccccc1)Cc1ccccc1" for me?
Ans: 103

Q: GET /values?readout=growth&item= "CCNC(=O)Oc1ccc(/C(=C(/C)Cc2ccc(OC)cc2)c2ccc(OCCN3CCCCCC3)cc2)cc1"
Ans: 35.2

Q: Look at this compound and give its reported growth. "O=C(c1ccc(F)c(Cl)c1)N1c2ccccc2Sc2ccccc21"
Ans: 44.1

Q: What value of growth has been recorded for this entry: "c1ccc(CNc2ccc3nc(CCC4CCCCC4)[nH]c3c2)cc1"
Ans: 51.2

Q: Return reported growth; argument: "COc1ncc2cc1NS(=O)(=O)c1cccc(c1)C(=O)NCC1=CC=C(S1)c1ncnc3c1SC2=C3C"
Ans: -20.2

Q: Param item = "O=[N+]([O-])/C(=C\c1ccco1)c1ccccc1Cl" ; retrieve measured growth.
Ans: 74.1

Values from PubChem BioAssay (NCI)
